# system_name: T1, ZH 07 as periplasmic ABD fusion AQHDEALE-[ZH 07]-VDYV-[ABD]-YVPG (Streptococcus strain G148, UniProt P19909 254-299, limits assumed)
# T1 construct: domain: GA3
# test_method_notes: SPR (Biacore 2000) screening; periplasmic Z-ABD captured on anti-ABD antibody, 200 nM boxA(disulfide); 1:1 model; average of 8 measurements
assay_endpoint: Kd

1. boxA(disulfide), disulfide linked form of A-box domain of HMGB1 (other, disulfide C23-C45, also called b-boxA(disulfide)) MGKGDPKKPRGKMSSYAFFVQTCREEHKKKHPDASVNFSEFSKKCSERWKTMSAKEKGKFEDMAKADKARYEREMKTYIPPKGETKKKF: ~44 nM
